Measured z-score accompanies every entry in the list below.
- TEST_NAME: compound effects on lung adenocarcinoma cell viability – A549, calcein-AM fluorescence, 48 h, basal, profiling panel (AID 1162); also: test concentration not given here
- APPLIED_CONDITIONS: higher = more signal
No unit in the answer, only the number.

See these solved cases before continuing.
[[record]]
compound = "O=C1OCCC=C[C@H]2OC34C=CCN(c5ccc6ccccc6c5)C(=O)[C@H]3N(CCCO)C(=O)[C@@H]4C12 (stereo partly drawn)"
observed_property = "z-score"
reported_value = 0.167

[[record]]
compound = "C=CCOC(=O)[C@@]1(Cc2ccccc2)C[C@H]2CO[C@H](c3ccc(OC)cc3)N2C1=O"
observed_property = "z-score"
reported_value = 0.158

[[record]]
compound = "C[C@@H]1NC(=O)[C@@H](Cc2ccccc2)NC(=O)[C@@]23C(=O)N[C@@H](Cc4ccccc4)C2[C@H](C)[C@@]2(C)O[C@H]2C3/C=C/C/C=C\\CNC1=O (stereo partly drawn)"
observed_property = "z-score"
reported_value = -0.312

[[record]]
compound = "O=C1OCCC=C[C@H]2OC34C=CCN(Cn5nnc6ccccc65)C(=O)[C@H]3N(CCCO)C(=O)[C@@H]4C12 (stereo partly drawn)"
observed_property = "z-score"
reported_value = 0.213

[[record]]
compound = "CC(C)N1CC=CC23O[C@@H]4C=CCCOC(=O)C4[C@H]2C(=O)N(CCCO)[C@@H]3C1=O (stereo partly drawn)"
observed_property = "z-score"
reported_value = -0.726


Task: I have this compound here, CCCCCC1=C2CNC(C)(C(=O)OC)C=C2C(C)C1=O (stereo not drawn) , and I need its recorded z-score.
Output: -1.23

Task: I have this compound here, CS(=O)(=O)CCOC(=O)C1=CC(c2ccc(CO)cc2)=CC(C2CC2)N(Cc2sc3ccccc3c2Cl)C=C1C(=O)OCCS(C)(=O)=O (stereo not drawn) , and I need its recorded z-score.
Output: -0.852

Task: I have this compound here, Cc1ccc(C(C)CC(O)C2C=CC3C(=O)N(c4ccccc4)C(=O)C3N2Nc2ccccc2)o1 (stereo not drawn) , and I need its recorded z-score.
Output: -0.0446

Origin of measurements: PubChem BioAssay
